Experiment: Inhibition of pig brain CK1 delta/epsilon using RRKHAAIGpSAYSITA as substrate
Parameters: species or system Sus scrofa
property: IC50
Please give the number followed by its unit.

Worked set:
1) Nc1ncc(I)c(-c2c[nH]c3cc([N+](=O)[O-])ccc23)n1; 1000 nM
2) Nc1nccc(-c2c[nH]c3ccccc23)n1; 6200 nM

Now let's try a different one.
Exercise: Quick one: IC50 for CC(=O)Nc1ccc(-c2cnc(N)nc2-c2c[nH]c3ccc(Br)cc23)cc1 ?
Key: 2100 nM

====

Test system: IMR-32
Test: Antiproliferative activity against human IMR32 cells by MTS reduction assay
pIC50: −log10 of the molar value.
Overview of recorded pIC50 for various molecules

1. Nc1ncc(I)c(-c2c[nH]c3c([N+](=O)[O-])cccc23)n1; < 5.00
2. Nc1ncc(-c2ccc(C(F)(F)F)cc2)c(-c2c[nH]c3cc(Br)ccc23)n1; < 5.00
3. Nc1nccc(-c2c[nH]c3cc([N+](=O)[O-])ccc23)n1; < 4.60
4. Nc1ncc(I)c(-c2c[nH]c3cccc(Br)c23)n1; < 5.00
5. Nc1ncc(I)c(-c2c[nH]c3cc(Br)ccc23)n1; 5.42

Exercise: Which measured pIC50 belongs to CC(=O)Nc1ccc(-c2cnc(N)nc2-c2c[nH]c3ccc(Br)cc23)cc1 , tested on IMR-32?
Key: < 5.00

Exercise: Now give it for Nc1ncc(I)c(-c2c[nH]c3c(Br)cccc23)n1 too.
Key: 5.14

Exercise: And CC(=O)c1ccc(-c2cnc(N)nc2-c2c[nH]c3ccc(Br)cc23)cc1 ?
Key: 4.89

Exercise: Same for Nc1ccc2c(-c3nc(N)ncc3I)c[nH]c2c1
Key: < 5.00

Exercise: Further, for CC(=O)c1ccc(-c2cnc(N)nc2-c2c[nH]c3c(Br)cccc23)cc1 ?
Key: < 5.00

Exercise: Same for Nc1nccc(-c2c[nH]c3cc(Br)ccc23)n1
Key: < 4.60

Where do the numbers come from? From ChEMBL document CHEMBL1799982.
